# Method: logP determination (acidic, pH 2.3)
# Format: physicochemical
# Measurement Conditions: read-out: log P (pH 2.3)
This section presents molecules with their documented logP values.

>>> result("CCN(C)/C=N/c1cc(C)c(Oc2nc(C(C)(C)C)ns2)cc1C [A-1]")
2.02
>>> result("CC(C)(C)c1nsc(Cl)n1")
3.44

Let us move to another entry and its logP.
I have this molecule here, `Cc1cc(Oc2nc(C(C)(C)C)ns2)c(C)cc1N` , and I need its recorded logP. 3.29

* * *

This section presents compounds with their documented logP values.
# Method: logP determination (acidic, pH 2.3)
# Type: physicochemical
# Measurement Conditions: acidic, read-out: logP (acidic)
No unit in the answer, please; the number alone is enough.

For orientation, consider the following solved cases.
>>> numeric_result("CCN(C)C=Nc1cc(Cl)c(Oc2nc(C(C)(C)C)ns2)cc1C")
2.11
>>> numeric_result("Cc1cc(Oc2nc(C(C)(C)C)ns2)c(C)cc1/N=C/N1CCCCC1")
2.22
>>> numeric_result("Cc1cc(Oc2nc(C(C)(C)C)ns2)c(Cl)cc1/N=C/N1CCCCC1")
2.36

Let us move to another entry and its logP.
I have this compound here, `Cc1cc(Oc2nc(C(C)(C)C)ns2)c(C)cc1N=CN(C)C(C)C` , and I need its recorded logP. 2.15
